system-under-test: Angiotensin II receptor (AT-1) type-1 (Rattus norvegicus, UniProt P29089+P25095)
assay-remarks: In vitro inhibitory activity against rat Angiotensin II receptor, type 1 expressed in CHO cells
Format: cell-based
Numbered stars: 1 amine (or outer) side, 2 acyl side, 3 side chain; on linkers, the order of the positions; unused ones are H or OH. Bridge positions count the residues as written; N and C are the ends. Square brackets hold non-standard residues; d marks the D form. Peptide text beside a SMILES is read from it. X1 = O=C([C@@H]1CC[C@H]([*:3])N1[*:1])[*:2]; hCys = N[C@@H](CCS)C(=O)O
observation-type: IC50 (µM)
Return type: number; implicit unit µM.

compound: NC(N)=NCCC[C@H](NC(=O)[C@@H](N)CC(=O)O)C(=O)N[C@H]1CCS[C@H]2CC[C@@H](C(=O)N[C@@H](Cc3c[nH]cn3)C(=O)N3CCC[C@H]3C(=O)N[C@@H](Cc3ccccc3)C(=O)O)N2C(=O)[C@H](Cc2ccc(O)cc2)NC1=O (H-DR[hCys]Y[X1]HPF-OH; thioether 3-5)
observation-type: IC50
units-symbol: µM
meas-value: 0.8

Quick note, IC50 for NC(N)=NCCC[C@H](NC(=O)[C@@H](N)CC(=O)O)C(=O)N[C@H]1CCSSCC[C@@H](C(=O)N[C@@H](Cc2c[nH]cn2)C(=O)N2CCC[C@H]2C(=O)N[C@@H](Cc2ccccc2)C(=O)O)NC(=O)[C@H](Cc2ccc(O)cc2)NC1=O (H-DR[hCys]Y[hCys]HPF-OH; disulfide 3-5) landed at 0.0002

// data source = ChEMBL document CHEMBL1132461
